Data origin: patent US10561736B1

- assay.procedure: GLP acute systemic toxicity study with toxicokinetics, single IP dose
- Type: in vivo
- study.conditions: Sprague-Dawley, plasma; rat, IP 100 mg/kg/day, male; read-out: Tmax
measurement.label: Tmax (h)

molecule="COc1ccc2[nH]cc(CCNC(=O)CC3C(=O)N(CCc4ccc(Cl)cc4Cl)CC(=O)N3CCc3cccs3)c2c1 (stereo not shown)" measurement_label=Tmax test_result=2

----------
- assay.procedure: cochlear distribution after IT administration (absorption)
- Type: in vivo
- study.conditions: cochlea (cochlear homogenate), other: intratympanic (IT); rat, IT 50 μM, 24 hours; read-out: mean cochlear LPT99 concentration
measurement.label: concentration at 24 h

compound="COc1ccc2[nH]cc(CCNC(=O)CC3C(=O)N(CCc4ccc(Cl)cc4Cl)CC(=O)N3CCc3cccs3)c2c1 (stereo not shown) [LPT99]" test_result="1.8 ng/g"
